test.protocol: Toxicity, LD50
recorded.conditions: in vivo
metric: LD50 (mg/kg)
Enter your answer as a number in mg/kg; do not include the unit.

What value of measured LD50 is listed for `Cn1c(=O)[nH]c2ncn(C)c2c1=O` ?
1600

What value of measured LD50 is listed for Cn1cnc2c1c(=O)[nH]c(=O)n2C [theobromine, reference compound] ?
1260

Numbers sourced from patent US20230072854A1.
